Experiment: AP1 Signaling Pathway (AID 357);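 also: ME-180 reporter cells stimulated with EGF at its EC50 level; % is scaled to controls: 0 for no effect and ±100 for the full control effect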
Details: ME-180 AP-1-bla reporter, EGF-induced, beta-lactamase ratio, 5 h; at 7.69 µM (top of the series) unless noted
Inconclusive results are not listed.
readout.name: activity change, negative = inhibition (%)
Your answer is read as %, so omit the unit and give the number.

In: Report activity change, negative = inhibition for "Cc1nc2cnc(N(C)C)nc2n(C)c1=O" please.
Out: -9.37

In: Report activity change, negative = inhibition for "COc1cccc(-c2cncnc2NCc2cccnc2)c1" please.
Out: -6.26

In: Report activity change, negative = inhibition for "COCCn1c(=O)c(-c2ccc(OC)cc2)nc2cnc(OCc3ccccc3)nc21" please.
Out: -11.8

In: Report activity change, negative = inhibition for "Cc1cnc(CNc2cc(-c3ccccc3C)ncn2)cn1" please.
Out: -5.18

In: Report activity change, negative = inhibition for "CC(=O)N1CCC2(CC1)CCN(C(=O)Nc1cccc(C#N)c1)CC2" please.
Out: 4.49

In: Report activity change, negative = inhibition for "COCC(=O)N1CCC2(CC1)CCN(c1cccc(-c3ccccc3)c1)CC2" please.
Out: -4.83

In: Report activity change, negative = inhibition for "CN1CCN(c2ncncc2-c2ccc(N(C)C)cc2)CC1" please.
Out: -1.37

In: Report activity change, negative = inhibition for "Cc1ccccc1-c1ccc2ncnc(NCc3cccs3)c2c1" please.
Out: -9.99

In: Report activity change, negative = inhibition for "N#Cc1cccc(NC(=O)N2CC3(CCN(C(=O)c4ccco4)CC3)C2)c1" please.
Out: -10.9

In: Report activity change, negative = inhibition for "O=c1c(-c2cccc(Cl)c2)nc2cncnc2n1Cc1ccccc1Cl" please.
Out: 15.6

In: Report activity change, negative = inhibition for "COc1ccc(NC(=O)N2CCCC3(CCN(C(=O)c4ccco4)CC3)C2)cc1" please.
Out: -17.6

In: Report activity change, negative = inhibition for "Cc1noc(C)c1C(=O)N1CCC2(CCCN(Cc3ccc(C#N)cc3)C2)CC1" please.
Out: 4.42

In: Report activity change, negative = inhibition for "COc1ccccc1-c1ccc2ncnc(NCCNC(C)=O)c2c1" please.
Out: 11.9

In: Report activity change, negative = inhibition for "COc1ccccc1CN1CCCC2(CCN(C(=O)c3ccncc3)CC2)C1" please.
Out: -0.588

In: Report activity change, negative = inhibition for "O=C(Oc1ccccc1)N1CCC2(CC1)CN(c1ccncc1)C2" please.
Out: -1.8

In: Report activity change, negative = inhibition for "COc1ccc(-n2c(=O)c(-c3ccc(Cl)cc3)nc3cncnc32)cc1" please.
Out: -19.6

* * *

Target: Cytochrome P450 3A4 (Homo sapiens) (UniProt P08684)
Sequence (P08684 whole entry, looked up): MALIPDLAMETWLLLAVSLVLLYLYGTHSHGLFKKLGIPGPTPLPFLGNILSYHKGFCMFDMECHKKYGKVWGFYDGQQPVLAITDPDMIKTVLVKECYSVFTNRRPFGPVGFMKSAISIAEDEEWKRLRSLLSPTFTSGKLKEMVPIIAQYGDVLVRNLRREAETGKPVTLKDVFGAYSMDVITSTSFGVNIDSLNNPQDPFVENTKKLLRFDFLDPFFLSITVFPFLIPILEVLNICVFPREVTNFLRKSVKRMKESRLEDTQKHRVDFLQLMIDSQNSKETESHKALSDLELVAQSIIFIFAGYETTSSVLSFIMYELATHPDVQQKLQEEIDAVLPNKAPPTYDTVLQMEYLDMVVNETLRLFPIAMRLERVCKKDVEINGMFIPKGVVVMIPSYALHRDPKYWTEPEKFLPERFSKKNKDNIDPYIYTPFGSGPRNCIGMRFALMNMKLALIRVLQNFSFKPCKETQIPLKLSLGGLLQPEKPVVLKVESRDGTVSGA
Assay: qHTS Assay for Inhibitors and Substrates of Cytochrome P450 3A4 (AID 884); also: nearly all actives have a fitted effect of over 50% in size; also: potency is read from the fitted curve at half-maximal effect
Details: recombinant CYP3A4, Luciferin-PPXE luminescence; series mostly up to 57.1 µM
Results filed as inconclusive are left out. Active and inactive are the calls of the source. Calls come from the whole dose curve; as a rule, active = well fitted inhibition curve with a large enough effect; inconclusive = small, poorly fitted or top-dose-only effect; inactive = no such curve, though single readings can be large or run the other way.
readout.name: Potency

Use the examples below as a reference point.
- COc1ccccc1CNc1ncnc2ccc(-c3cccnc3)cc12: 2000 nM (active)
- COC(=O)c1c(OC)cc2c(c1C)Oc1c(Cl)c(O)c(Cl)c(C)c1C(=O)O2: 1580 nM (active)
- COc1cc(C)c2c(c1C=O)Oc1c(c(C)c(O)c3c1C(O)OC3=O)OC2=O (centres undefined): 12600 nM (active)
- CN1C(CC(=O)c2ccccc2)CCCC1CC(O)c1ccccc1 (centres undefined): inactive
- COc1ccc(CNc2ncncc2-c2cccc(C#N)c2)c(OC)c1: 316 nM (active)
- CS(=O)(=O)Nc1cccc(-c2ccc3ncnc(Nc4ccc(F)cc4)c3c2)c1: 7940 nM (active)
- NC(=O)c1ccccc1-c1nc(-n2ccnc2)c2ccccc2n1: 3980 nM (active)
- OC[C@H]1O[C@@H](n2cnc3c(NCc4ccco4)ncnc32)[C@H](O)[C@@H]1O: inactive
- O=C(c1cccc(F)c1)N1CCC2(CC1)CCN(C(c1ccccc1)c1ccccc1)CC2: inactive
- Cc1ccccc1-c1ccc2ncnc(NCc3cccnc3)c2c1: 1580 nM (active)

In: Report Potency for "COc1ccc(C(=O)O)c(O)c1OC" please.
Out: inactive

In: Report Potency for "COc1ncc2nc(-c3cn(C)c4ccccc34)c(=O)n(C)c2n1" please.
Out: 5010 nM (active)

In: Report Potency for "CN1CCN(c2ncc3nc(CCc4ccccc4)c(=O)n(C)c3n2)CC1" please.
Out: inactive

In: Report Potency for "COc1cccc(-c2nccc(NCc3cccnc3)n2)c1" please.
Out: 1260 nM (active)

In: Report Potency for "Cc1cnc(CNc2ncnc3ccc(-c4cccc(C#N)c4)cc23)cn1" please.
Out: 3160 nM (active)

* * *

Test: Stat Signaling Pathway (AID 446);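 also: ME-180 cervical cancer cells given 40 pM IL-6 alongside compound; SIE-controlled beta-lactamase reporter measured as 460/530 nm FRET emission ratio; % is scaled to controls: 0 for no effect and ±100 for the full control effect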
Conditions: ME-180 SIE beta-lactamase reporter, IL-6 stimulated, 5 h; at 7.69 µM (top of the series) unless noted
Results filed as inconclusive are left out.
readout.name: activity, negative = inhibition (%)
Your answer is read as %, so omit the unit and give the number.

In: Report activity, negative = inhibition for "O=C(c1cccc(F)c1)N1CCC2(CC1)CN(c1ccccc1)C2" please.
Out: -1.57

In: Report activity, negative = inhibition for "CS(=O)(=O)N1CCC2(CCCN(c3cccc(-c4ccccc4)c3)C2)CC1" please.
Out: -0.955

In: Report activity, negative = inhibition for "COc1ccc(NC(=O)N2CCCC3(CCN(S(=O)(=O)c4ccccc4)CC3)C2)cc1" please.
Out: -19

In: Report activity, negative = inhibition for "Cn1cccc1C(=O)N1CCC2(CCCN(c3cccc(-c4ccccc4)c3)C2)CC1" please.
Out: 2.34

In: Report activity, negative = inhibition for "CN1CC[C@@]2(CCCN(C(=O)c3cc(C(F)(F)F)cc(C(F)(F)F)c3)C2)C1" please.
Out: 13.1

In: Report activity, negative = inhibition for "CN(Cc1ccco1)c1ccnc(-c2cccc(NS(C)(=O)=O)c2)n1" please.
Out: 2.34

* * *

Test: AP1 Signaling Pathway (AID 357);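 also: ME-180 reporter cells stimulated with EGF at its EC50 level; % is scaled to controls: 0 for no effect and ±100 for the full control effect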
Conditions: ME-180 (cervical carcinoma) AP-1-bla reporter, EGF-induced, beta-lactamase ratio, 5 h; at 7.69 µM (top of the series) unless noted
Results filed as inconclusive are left out.
For each record, write down the corresponding activity change, negative = inhibition.
Your answer is read as %, so omit the unit and give the number.

In: Report activity change, negative = inhibition for "Cc1cccc(CNc2cc(-c3ccoc3)ncn2)c1" please.
Out: -15.6

In: Report activity change, negative = inhibition for "N#Cc1cccc(NC(=O)N2CC3(CCN(C(=O)c4cc(C(F)(F)F)cc(C(F)(F)F)c4)CC3)C2)c1" please.
Out: -13.9

In: Report activity change, negative = inhibition for "Cc1cccc(CNc2ncnc3ccc(-c4ccccc4C#N)cc23)c1" please.
Out: -28.4

In: Report activity change, negative = inhibition for "O=C(c1ccncc1)N1CCC2(CCCN(c3ccncc3)C2)CC1" please.
Out: -3.65

In: Report activity change, negative = inhibition for "COc1ccc(CNc2ccnc(-c3ccccc3CN(C)C)n2)c(OC)c1" please.
Out: 5.22

In: Report activity change, negative = inhibition for "COc1ccc(-c2nc3cnc(OC)nc3n(C3CC3)c2=O)cc1" please.
Out: -14.2

In: Report activity change, negative = inhibition for "COc1ccccc1CNc1nc(-c2cccnc2)nc2ccccc12" please.
Out: -17.9

In: Report activity change, negative = inhibition for "COc1ccc(CNc2nc(-c3ccc4c(c3)OCO4)nc3ccccc23)c(OC)c1" please.
Out: 0.828

In: Report activity change, negative = inhibition for "Cc1cnc(CNc2ccnc(-c3cccc(NS(C)(=O)=O)c3)n2)cn1" please.
Out: -6.82

In: Report activity change, negative = inhibition for "COc1ccc(-c2nc3cnc(OC)nc3n(-c3ccc(OC)cc3)c2=O)cc1" please.
Out: -4.28

In: Report activity change, negative = inhibition for "COc1ccc(CNc2ccnc(-c3cccc(NS(C)(=O)=O)c3)n2)c(OC)c1" please.
Out: -18.2

In: Report activity change, negative = inhibition for "O=C(c1cc(C(F)(F)F)cc(C(F)(F)F)c1)N1CCC2(CCN(Cc3ccncc3)CC2)CC1" please.
Out: -22.8

In: Report activity change, negative = inhibition for "CC(=O)N1CCC2(CC1)CN(Cc1cc(C(F)(F)F)cc(C(F)(F)F)c1)C2" please.
Out: 2.68

In: Report activity change, negative = inhibition for "Cc1noc(C)c1-c1ccc2ncnc(Nc3ccccc3)c2c1" please.
Out: -6.37

In: Report activity change, negative = inhibition for "COc1ccc(-n2c(=O)c(CCc3ccccc3)nc3cnc(N4CCN(C)CC4)nc32)cc1" please.
Out: -22.3

In: Report activity change, negative = inhibition for "Fc1ccc(Nc2nc(-c3ccoc3)nc3ccccc23)cc1" please.
Out: 11.4

In: Report activity change, negative = inhibition for "O=C(c1cnccn1)N1CCC2(CC1)CCN(c1ccncc1)CC2" please.
Out: 15.7
